Tested on: HT-29
Test: Cytotoxicity against human HT-29 cells assessed as AUC-time curve providing 10% surviving fraction by clonogenic assay
Type: functional
MEASURED_ATTRIBUTE: Activity

> print(dat)
                                   compound     result
1  CC1Cc2cc3c(cc2C1)[n+]([O-])c(NCCN(C)C)n[n+]3[O-] (stereo not drawn)    23 µM·h
2  [O-][n+]1nc(CCCN2CCOCC2)[n+]([O-])c2cc3c(cc21)CC(CO)C3 (stereo not drawn)  24.4 µM·h
3  CCN1Cc2cc3c(cc2C1)[n+]([O-])c(N)n[n+]3[O-]   8.1 µM·h

====

Test system: HT-29
Assay: Metabolic stability in human HT-29 multicellular layer assessed as apparent first-order rate constant under anoxic condition
Type: ADME, cell-based
MEASURED_ATTRIBUTE: Activity (min⁻¹)

> print(dat)
                                   molecule  readout.unit  readout.number
1  [O-][n+]1nc(NCCCN2CCOCC2)[n+]([O-])c2cc3c(cc21)CCCC3         min⁻¹            0.69
2  CCN1Cc2cc3c(cc2C1)[n+]([O-])c(N)n[n+]3[O-]         min⁻¹             2.2
3  CCc1n[n+]([O-])c2cc3c(cc2[n+]1[O-])CC(CCN1CCOCC1)C3 (stereo not drawn)         min⁻¹            0.54
4  CN(C)CCNc1n[n+]([O-])c2cc3c(cc2[n+]1[O-])CCCCC3         min⁻¹            1.52
5  [O-][n+]1nc(NCCCN2CCOCC2)[n+]([O-])c2cc3c(cc21)CCO3         min⁻¹            0.23
6  COc1ccc2c(c1)[n+]([O-])c(NCCN(C)C)n[n+]2[O-]         min⁻¹            0.54
7  CCN(CC)CCNc1n[n+]([O-])c2c3c(ccc2[n+]1[O-])CCC3         min⁻¹            0.97
8  [O-][n+]1nc(NCCCN2CCOCC2)[n+]([O-])c2cc3c(cc21)CCC3         min⁻¹            0.19
